# test-target: Hexose transporter 1 (Plasmodium falciparum) (UniProt O97467)
# test-description: ST_JUDE_LEISH: Cytotoxicity at 2uM final concentration against transgenic Leishmania Mexicana promastigotes LmPfHT that are glucose transport deficient and complemented with the Plasmodium falciparum hexose transporter. Activity is measured by DNA content using SYBR green in vitro
# Format: functional
Please go through the items and note down their inhibition.
Give the quantity in %, number only.

## Input inhibition of COc1cccc(-c2cccc(NC(=O)C3CCN(Cc4ccc(O)cc4)CC3)c2)c1 on Hexose transporter 1 (Plasmodium falciparum) (UniProt O97467)?
## Output 0.59

## Input What would you report for O=C(c1ccc(Cl)c(Cl)c1)N1CCc2c([nH]c3ccccc23)C1CN1CCCC1 (configuration not stated) ?
## Output 5.06

## Input Also, S=C(NCCCCCN1CCC(c2c[nH]c3ccccc23)CC1)Nc1cc(Cl)cc(Cl)c1 please.
## Output -0.55

## Input Next molecule: CC1(C)N=C(N)N=C(N)N1OCc1ccc2c(c1)OCO2
## Output 6.63

## Input Ok, now Oc1ccc(CCNc2nc(NCc3ccccc3-c3ccc(C(F)(F)F)cc3)nc(N3CCNCC3)n2)cc1
## Output -2.19

## Input Can you check CC(C)CNC(=O)c1cncc(-c2ccc(CNCCCc3ccccc3)cc2)c1 next?
## Output -0.91

## Input Param item: CC(C)(C)c1ccc(O)c(CNC2CCCCC2)c1
## Output 3.36

## Input What do you have for Cc1cccc2nc(-c3ccc(-c4cccc(CN5CCC(C(N)=O)CC5)c4)s3)[nH]c12 ?
## Output 2.17

## Input Record: NC(=O)c1sc(-n2cnc3ccc(OCC4CCNCC4)cc32)cc1OCc1ccccc1C(F)(F)F
## Output -0.16

## Input Same lookup for Cc1ccc(-c2ccn(Cc3cccc(OCc4ccccc4)c3)n2)cn1.Cc1ccc(-c2ccnn2Cc2cccc(OCc3ccccc3)c2)cn1 , please.
## Output 1.4

## Input Another: N#Cc1ccc2c(c1)CCN(CCC1CCC(NC(=O)/C=C/c3ccc4ccccc4c3)CC1)CC2 (configuration not stated)
## Output -1.71

## Input Could you do the same for O=C(NCCc1ccccc1)c1cc(-c2cccnc2)cnc1NCC1CC1 , please?
## Output 6.01

---

# test-target: Hexose transporter 1 (Plasmodium falciparum) (UniProt O97467)
# test-description: ST_JUDE_LEISH: Cytotoxicity at 2uM final concentration against transgenic Leishmania Mexicana promastigotes LmPfHT that are glucose transport deficient and complemented with the Plasmodium falciparum hexose transporter. Activity is measured by DNA content using SYBR green in vitro
# Type: functional
measurement-name: inhibition (%)
Unit % implied. Number only.

## Input Give Hexose transporter 1 (Plasmodium falciparum) (UniProt O97467) inhibition for Cc1ccc([S+]([O-])Cc2ccc(Cl)cc2)cc1 (stereo not drawn)
## Output -0.65

## Input Same question for COc1ccc2nccc(N(C)CC3(O)CCN(CCc4ccc5c(c4)OCCO5)CC3)c2n1 please.
## Output 0.73

## Input Also, CCCCc1cc(NCC)nc(Nc2ccc(F)cc2)n1 please.
## Output 10.4

## Input Try the molecule Nc1nc(N)c2cc(CNc3ccc(Cl)c(Cl)c3)ccc2n1
## Output 6.41

## Input And for CC(C)(C)[C@@H](Nc1ccc(C#N)c2ccccc12)C(=O)NC1(Cc2ccc(O)c(Br)c2)CCCC1 ?
## Output 3.09

## Input Can you check CC(C)C[C@H](NC(=O)c1cc2ccccc2s1)C(=O)N[C@H]1CCN(Cc2ccc(OCCCN(C)C)c(Cl)c2)C1 next?
## Output 2.95

## Input Follow-up item: Oc1ccc(Nc2ccnc3cc(Cl)ccc23)cc1
## Output 4.67

## Input Let us now turn to O=C(Nc1ccc(-c2ccccc2)cc1)Nc1cccc(Cn2cnc(N3CCCNCC3)cc2=O)c1
## Output 4.17

## Input Now try CC(C)c1ccc(NC(=O)N[C@H]2CCN(CCCCCNC(=O)/C=C/c3ccc(Cl)c(Cl)c3)C2)cc1 .
## Output -3.46

## Input Now consider CS(=O)(=O)c1cc2c(Nc3ccc(N4CCOCC4)cc3)c(C(N)=O)cnc2cc1Br .
## Output 1.07

## Input How about CCOC(=O)c1ccc(NC(=O)N[C@@H](Cc2ccccc2)C(=O)NC2CCN(Cc3ccc(OCCCN(C)C)cc3)C2)cc1 (stereo partly drawn) ?
## Output 0.74

## Input Next molecule: COc1ccc(Nc2cc(C)nc(NCc3ccc4c(c3)OCO4)n2)cc1
## Output 4.09

## Input Now consider Cc1cc(N)c2cc(NC(=O)c3ccc4ccccc4c3)ccc2n1 and answer again.
## Output 4.64

---

# test-target: Hexose transporter 1 (Plasmodium falciparum)
# test-description: ST_JUDE_LEISH: Cytotoxicity at 2uM final concentration against transgenic Leishmania Mexicana promastigotes LmPfHT that are glucose transport deficient and complemented with the Plasmodium falciparum hexose transporter. Activity is measured by DNA content using SYBR green in vitro
# Type: functional
measurement-name: inhibition
Field note: include the unit after the figure.

## Input Query inhibition on Hexose transporter 1 (Plasmodium falciparum) for O=C(CCc1c[nH]cn1)Nc1ccc(-c2ccc(-c3nc4cc(F)ccc4[nH]3)cc2)cc1
## Output 1.73%

## Input Next molecule: Cc1noc(-c2ccc(NC[C@@H](C)NC[C@H](O)c3cccc(Cl)c3)cc2)n1
## Output 3.1%

## Input Another: COc1ccc2ccccc2c1CNCC1CCN(CC2CCCCC2)CC1
## Output -0.57%

## Input Next entry: CC(CNC(=O)C(c1cc2ccccc2o1)N1CCN(C(c2ccccc2)c2ccccc2)CC1)c1ccccc1 (centres undefined)
## Output 3.31%

---

# test-target: Glucose transporter (Leishmania mexicana) (UniProt O61059)
# test-description: ST_JUDE_LEISH: Cytotoxicity at 2uM final concentration against transgenic Leishmania Mexicana promastigotes LmGT2 that are glucose transport deficient and complemented with the L. Mexicana glucose transporter 2. Activity is measured by DNA content using SYBR green in vitro
# Type: functional
Task for the reader: assign each of the following compounds its reported inhibition.
State just the number; it will be interpreted in %.

## Input // lookup inhibition for CCCNCc1ccc(-c2ccc(CN(CCOC)C(=O)CCC(=O)c3ccc(OC)c(F)c3)cc2)nc1
## Output 1.5

## Input Also need c1cc(CNCC2CCCO2)cc(-c2cccc(-c3nc4ccccc4[nH]3)c2)c1 (stereo not given) , thanks.
## Output -0.18

## Input // query: COc1ccc2c(=O)c(-c3ccc(OC(F)(F)F)cc3)c(C)[nH]c2c1
## Output 1.81

## Input And for Cc1cccc2nc(-c3ccc(-c4cccc(NCc5cn6cccnc6n5)c4)cc3)[nH]c12 ?
## Output -2.51

## Input Item: Cc1cccc2nc(-c3ccc(-c4ccc(NC(=O)Nc5ccsc5)cc4)cc3)[nH]c12
## Output -0.35

---

# test-target: Hexose transporter 1 (Plasmodium falciparum) (UniProt O97467)
# test-description: ST_JUDE_LEISH: Cytotoxicity at 2uM final concentration against transgenic Leishmania Mexicana promastigotes LmPfHT that are glucose transport deficient and complemented with the Plasmodium falciparum hexose transporter. Activity is measured by DNA content using SYBR green in vitro
# Assay type: functional
Answer each item with its documented inhibition.
Write down the numeric answer in % and omit the unit.

## Input Param item = CCc1cn2c3c(cc(C(=O)N[C@@H](Cc4cc(F)cc(F)c4)[C@H](O)CNC4CCOCC4)cc13)N(C)S(=O)(=O)CC2 ; retrieve measured inhibition.
## Output -1.91

## Input Follow-up item: CCOC(=O)N1CCN(CCCNc2c3ccccc3nc3ccccc23)CC1
## Output 4.08

## Input How about CC1CN(C(=O)c2sc3ccccc3c2Cl)CC(C)O1 (centres undefined) ?
## Output 0.96

## Input Now consider N#CN1CC[C@H](CS(=O)(=O)c2cccc(Br)c2)C1 .
## Output 4.67

## Input Another molecule: COc1ccc(CCN2CCC(Nc3nc4ccccc4n3CCc3ccc(OC)cc3)CC2)cc1
## Output -1.39

## Input Further, for COc1cc2nc(N3CCC(CNC(=O)c4ccc(C(C)=O)cc4)CC3)nc(N)c2cc1OC ?
## Output 2.18

## Input Also, COc1ccc2ncc(F)c([C@H](O)CN3CCC(NCc4cc5c(cn4)OCCO5)CC3)c2c1 please.
## Output 6.52

## Input # iterate: COc1ccc(CNC(=O)c2cnc3cc(-c4c(C)noc4C)ccc3c2Nc2ccccc2C(C)(C)C)cc1
## Output 4.17

## Input Quick one: C#CCOc1ccc(N2C(N)=NC(N)=NC2(C)C)cc1
## Output 1.16

---

# test-target: Glucose transporter (Leishmania mexicana) (UniProt O61059)
# test-description: ST_JUDE_LEISH: Cytotoxicity at 2uM final concentration against transgenic Leishmania Mexicana promastigotes LmGT2 that are glucose transport deficient and complemented with the L. Mexicana glucose transporter 2. Activity is measured by DNA content using SYBR green in vitro
# Assay type: functional
Please respond with reported inhibition for every item in the list.
The response must be a number in % with no trailing unit.

## Input Find the recorded inhibition belonging to COC(=O)c1cc(/C(C)=N/Nc2nc3ccccc3[nH]2)ccc1O and report it.
## Output 1.77

## Input Now the molecule CC1(C)NC(N)=NC(=N)N1OCCCCOc1ccc(Cl)cc1C1CCCCC1
## Output 11.5

## Input Next: CC(=O)Nc1nc(C(=O)Nc2ccc(-c3ccc(-c4nc5cccc(C)c5[nH]4)cc3)cc2)cs1
## Output 6.38

## Input // next record CC(C)(C)c1ccc2nccc(Nc3cccc(O)c3)c2c1
## Output 2.33

## Input Try CC(=O)Nc1ccc(CNCCc2ccc(NC(=O)c3cc(Cl)cc(Cl)c3)cc2)cc1 next.
## Output -1.09

## Input Would you kindly repeat that for Cc1ccc(Cc2c[nH]c(NCCSCc3ccc(CN4CCOCC4)o3)nc2=O)cn1 ?
## Output 3.98

## Input Cc1cccc(OCC(=O)Nc2cccc(NC(=O)COc3cccc(C)c3)n2)c1 , same question.
## Output 1.64

## Input Okay, and CCOC(=O)c1ccc(-c2cnc(N)c(-c3nc4cccc(C)c4[nH]3)c2)cc1 ?
## Output 4.47

## Input Request: CCC[C@@H]([C@@H](CC1CCCCC1)C(=O)NC(C(=O)Nc1nccs1)C(CC)c1ccccc1)N(O)C=O (stereo not given in full)
## Output 0.64

## Input # iterate: COc1ccc(Cl)cc1N1CCN(CCCNC(=O)c2ccc(-c3nc4cc(Cl)c(F)cc4[nH]3)s2)CC1
## Output 2.06
